Form field: inhibition (one value per entry).
Molecular target: Histone deacetylase (Homo sapiens) (UniProt Q13547+O15379+Q9UBN7+Q92769+Q9UQL6+Q8WUI4+Q9BY41+Q96DB2+P56524+Q9UKV0+Q969S8)
Assay: Inhibition of HDAC in human K562 cells nuclear extracts at 100 uM
Format: cell-free

>>> print(df.to_string())
                                        smi  reported_measurement
0  COc1ccc2cc(C(=O)/C=C/c3ccc(OC)c(OC)c3)c(=O)oc2c1                 < 10%
1  COc1ccc(/C=C/C(=O)c2cc(=O)oc3cc(OC)ccc23)cc1                   20%
2  COc1ccc(/C=C/C(=O)c2cc3ccc(OC)cc3oc2=O)cc1                 < 10%

The recorded inhibition for COc1ccc2cc(C(=O)/C=C/C=C/c3ccc(O)c(OC)c3)c(=O)oc2c1 is < 10%

The recorded inhibition for COc1ccc(/C=C/C=C/C(=O)c2cc3ccc(OC)cc3oc2=O)cc1 is 30%

The recorded inhibition for O=C(/C=C/c1ccccc1)c1cc2ccccc2oc1=O is < 10%
